# target-entity: T1, ScPif1 R324A (Saccharomyces cerevisiae, UniProt P07271 236-753, R324A)
# T1 sequence: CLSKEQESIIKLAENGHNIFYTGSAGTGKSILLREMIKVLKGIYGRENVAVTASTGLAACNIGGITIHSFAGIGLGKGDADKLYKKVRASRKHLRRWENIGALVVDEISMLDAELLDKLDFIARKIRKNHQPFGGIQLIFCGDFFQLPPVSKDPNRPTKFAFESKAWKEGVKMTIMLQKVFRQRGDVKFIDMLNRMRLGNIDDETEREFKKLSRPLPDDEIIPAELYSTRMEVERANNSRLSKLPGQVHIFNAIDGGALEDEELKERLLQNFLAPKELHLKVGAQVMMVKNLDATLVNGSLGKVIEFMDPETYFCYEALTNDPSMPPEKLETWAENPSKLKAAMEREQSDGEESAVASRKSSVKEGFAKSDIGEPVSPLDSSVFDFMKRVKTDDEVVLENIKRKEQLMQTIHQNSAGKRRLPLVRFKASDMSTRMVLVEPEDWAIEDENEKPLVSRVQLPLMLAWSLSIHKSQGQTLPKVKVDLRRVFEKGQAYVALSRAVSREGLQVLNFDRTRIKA
# assay: fluorescence anisotropy; no nucleotide; Fluorescence anisotropy: 20 mM HEPES-NaOH pH 7.5, 100 mM NaCl, 10% glycerol, 20 C, 10 nM FAM-DNA, 30 min, quadratic fit
# condition-context: protein: recombinant; tags: N-terminal SUMO tag, cleaved; label: 3' 6-FAM; parallel intramolecular G4
recorded-endpoint: Kd
Write your answer as a measured quantity: the number, then the unit.

Consider TGGTGGTGGTTGTTGTGGTGGTGGTGGT (structured_DNA) [AT11-FAM] . Its measured Kd is 11.8 nM
